# Caspase % annotations
Tested on: Caspase3 in Hela S100
measurement_protocol: In-vitro caspase-3 activation assay in Hela S100 extract
Assay type: biochemical
measurement_context: 100 nM compound, Hela S100, 1 mM dATP; slope versus control (compound 1 = Caspase std.)

compound	measurement_units	Caspase %
CN[C@@H](C)C(=O)N[C@@H](CCCc1ccc([C@H](NC(=O)[C@H](C)NC)C(=O)N2CCC[C@H]2C(=O)N[C@@H]2CCCc3ccccc32)cc1)C(=O)N1CCC[C@H]1C(=O)N[C@@H]1CCCc2ccccc21	%	102
CN[C@@H](C)C(=O)N[C@H](C(=O)N1CCC[C@H]1C(=O)N[C@@H]1CCCc2ccccc21)c1ccc(C#CCO[C@H](C)[C@H](NC(=O)[C@H](C)NC)C(=O)N2CCC[C@H]2C(=O)N[C@@H]2CCCc3ccccc32)cc1	%	109
CN[C@@H](C)C(=O)N[C@@H](CC#CC#CC[C@H](NC(=O)[C@H](C)NC)C(=O)N1CCC[C@H]1C(=O)N[C@@H]1CCCc2ccccc21)C(=O)N1CCC[C@H]1C(=O)N[C@@H]1CCCc2ccccc21	%	100
CN[C@@H](C)C(=O)N[C@@H](Cc1nnn2c1-c1c(C[C@H](NC(=O)[C@H](C)NC)C(=O)N3CCC[C@H]3C(=O)N[C@@H]3CCCc4ccccc43)nnn1CCC2)C(=O)N1CCCC1C(=O)N[C@@H]1CCCc2ccccc21.Cl.Cl (some centres unmarked)	%	88
CN[C@@H](C)C(=O)N[C@@H](CC#CC#CC[C@H](NC(=O)[C@H](C)NC)C(=O)N1CCC[C@H]1C(=O)NC(C)c1ccccc1)C(=O)N1CCC[C@H]1C(=O)NC(C)c1ccccc1 (some centres unmarked)	%	101
CN[C@@H](C)C(=O)N[C@@H](CCCCCC[C@H](NC(=O)[C@H](C)NC)C(=O)N1CCC[C@H]1C(=O)NC(C)c1ccccc1)C(=O)N1CCC[C@H]1C(=O)NC(C)c1ccccc1 (some centres unmarked)	%	93
CCC[C@H](NC)C(=O)N[C@@H](CC#CC#CC[C@H](NC(=O)[C@H](C)NC)C(=O)N1CCC[C@H]1C(=O)N[C@@H]1CCCc2ccccc21)C(=O)N1CCC[C@H]1C(=O)N[C@@H]1CCCc2ccccc21.Cl.Cl	%	87
CN[C@@H](C)C(=O)NC(C(=O)N[C@@H](Cc1cn(C/C=C\Cn2cc(C[C@H](NC(=O)[C@@H](NC(=O)[C@H](C)NC)C(C)(C)C)C(=O)N[C@@H]3CCCc4ccccc43)nn2)nn1)C(=O)N[C@@H]1CCCc2ccccc21)C(C)(C)C.Cl.Cl (some centres unmarked)	%	81
